Tested on: naturally aged mice
Test: Anti-aging evaluation in naturally aged mice, Example 31, Table 55;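 note: Vehicle-dosed control mice received solution alone at matching volume, values compare test-compound-treated aged mice against that control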
Format: in vivo, mouse
Details: joint, untreated = 1.0
Sorting guide: entries reporting Joint Col2a1 mRNA beneath 2 fold go in the criterion met pile, the rest go in the criterion not met pile.

A record lists C[C@H](N)C(=O)N1C[C@H](CCCB(O)O)[C@](N)(C(=O)O)C1 . Is its Joint Col2a1 mRNA below 2 fold?
criterion met

Same again, this time with CC(=O)N[C@@H](Cc1c[nH]c2ccccc12)C(=O)N[C@@H](CCC(=O)C=[N+]=[N-])C(=O)OC(C)C
criterion met

Item: C[C@@H]1CC[C@@]23C[C@H](O)C(=O)[C@@]2(O)[C@]1(C)[C@H](OC(=O)CCl)C[C@@H](C1=CCn2c(=O)n(-c4ccccc4)c(=O)n2C1)[C@@H]3C
criterion not met

And then CCOC(=O)[C@@H](N)CCC(=O)N[C@@H](CSCc1ccccc1)C(=O)N[C@@H](C(=O)OCC)c1ccccc1 , what is it?
criterion not met

One more compound: CN(NC(=O)CC(=O)NN(C)C(=S)c1ccccc1)C(=S)c1ccccc1
criterion not met

// data source = patent US20260306460A1
